# studySystem: T1, human NK1 receptor (human, UniProt P25103 1-407)
# T1 construct: whole, on cells; membrane preparations of the transfected cells were used; also called hNK1; human neurokinin-1 receptor
# T1 sequence (P25103 whole entry): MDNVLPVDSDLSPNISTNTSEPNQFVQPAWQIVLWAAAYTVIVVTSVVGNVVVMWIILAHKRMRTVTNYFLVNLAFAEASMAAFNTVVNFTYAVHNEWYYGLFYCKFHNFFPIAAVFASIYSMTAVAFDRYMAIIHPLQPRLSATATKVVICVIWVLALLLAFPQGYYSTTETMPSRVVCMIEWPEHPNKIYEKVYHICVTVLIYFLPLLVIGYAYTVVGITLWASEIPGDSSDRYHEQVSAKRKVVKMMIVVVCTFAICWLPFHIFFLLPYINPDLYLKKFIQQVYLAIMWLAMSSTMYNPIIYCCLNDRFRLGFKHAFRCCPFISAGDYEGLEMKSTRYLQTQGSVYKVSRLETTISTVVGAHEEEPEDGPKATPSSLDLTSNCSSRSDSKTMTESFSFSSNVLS
# assayRemarks: competition vs [3H]Substance P, hNK1 CHO cell membranes
pKi: −log10 of the molar value. Square brackets hold non-standard residues; d marks the D form. Ends that are not written are not given here. * marks the point of attachment. OBzl(3,5-(CF3)2) = FC(F)(F)c1cc(CO*)cc(C(F)(F)F)c1; Phe(4-Cl) = N[C@@H](Cc1ccc(Cl)cc1)C(=O)O; Phe(4-F) = N[C@@H](Cc1ccc(F)cc1)C(=O)O
Listed below: pKi values for each entry.
readoutName: pKi

> print(dat)
                                     binder  measvalue
1  Y[dA]G[Phe(4-Cl)]-{OBzl(3,5-(CF3)2)} (also called NP52) [Tyr-D-Ala-Gly-pClPhe-O-3′,5′(CF3)2-Bzl]       8.09
2  Y[dA]G[Phe(4-F)]-{O‑3,5‑Bzl(CF3)2} (also called NP62) [Tyr-D-Ala-Gly-pFPhe-O-3′,5′(CF3)2-Bzl]       9.70
3  Y[dA]GW-{OBzl(3,5-(CF3)2)} (also called NP44) [Tyr-D-Ala-Gly-Trp-O-3′,5′(CF3)2-Bzl]      10.52
4  Y[dA]GFW-{OBzl(3,5-(CF3)2)} (also called NP36) [Tyr-D-Ala-Gly-Phe-Trp-O-3′,5′(CF3)2-Bzl]      12.30
